- target: Steryl-sulfatase (Homo sapiens) (UniProt P08842)
- Sequence (P08842 whole entry): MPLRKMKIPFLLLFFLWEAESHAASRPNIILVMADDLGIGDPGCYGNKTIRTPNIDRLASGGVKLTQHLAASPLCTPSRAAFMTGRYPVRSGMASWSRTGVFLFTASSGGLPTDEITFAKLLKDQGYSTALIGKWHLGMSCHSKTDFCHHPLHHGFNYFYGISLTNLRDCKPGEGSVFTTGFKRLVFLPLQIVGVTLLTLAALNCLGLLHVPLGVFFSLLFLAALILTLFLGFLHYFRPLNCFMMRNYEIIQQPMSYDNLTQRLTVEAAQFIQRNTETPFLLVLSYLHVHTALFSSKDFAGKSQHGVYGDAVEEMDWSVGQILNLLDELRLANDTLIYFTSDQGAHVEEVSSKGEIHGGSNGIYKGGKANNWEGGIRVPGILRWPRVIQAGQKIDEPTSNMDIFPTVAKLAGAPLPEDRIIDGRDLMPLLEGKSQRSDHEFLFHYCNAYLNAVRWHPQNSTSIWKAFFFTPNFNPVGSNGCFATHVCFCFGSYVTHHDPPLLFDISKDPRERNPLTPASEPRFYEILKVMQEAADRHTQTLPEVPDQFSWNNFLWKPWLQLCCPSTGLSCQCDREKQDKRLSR
- measurementDescription: Inhibition of STS (unknown origin) expressed in HEK-293 cells assessed as transformation of [3H]-E1S into E1 at 0.1 uM by […]
- Type: cell-based
- settings: HEK293
endpoint: inhibition (%)
Numbers only, in %.

smilesRepr	endpoint	readoutValue
NS(=O)(=O)Oc1ccc2c(c1)CN(C(=O)c1cccc(N3CCN(c4ncccn4)CC3)c1)CC2	inhibition	1.6

Take each entry in turn and give its inhibition.
1. NS(=O)(=O)Oc1ccc2c(c1)CN(C(=O)c1ccc(N3CCCCC3)cc1)CC2
2. CCN(Cc1ccncc1)c1ccc(C(=O)N2CCc3ccc(OS(N)(=O)=O)cc3C2)cc1
3. CCN(Cc1ccncc1)c1cccc(C(=O)N2CCc3ccc(OS(N)(=O)=O)cc3C2)c1

Return:
1: 11.5; 2: 47; 3: 33.3

Take each entry in turn and give its inhibition.
1. NS(=O)(=O)Oc1ccc2c(c1)CN(C(=O)c1ccc(N3CCSCC3)cc1)CC2
2. CCCN(CCC)c1ccc(C(=O)N2CCc3ccc(OS(N)(=O)=O)cc3C2)cc1
3. CCN(Cc1ccccn1)c1cccc(C(=O)N2CCc3ccc(OS(N)(=O)=O)cc3C2)c1
4. CCN(Cc1cccc(Br)c1)c1ccc(C(=O)N2CCc3ccc(OS(N)(=O)=O)cc3C2)cc1
5. NS(=O)(=O)Oc1ccc2c(c1)CN(C(=O)c1ccc(N(CCCO)Cc3ccccc3)cc1)CC2
6. NS(=O)(=O)Oc1ccc2c(c1)CN(C(=O)c1cccc(N(CCO)Cc3ccccc3)c1)CC2

Return:
1: 32.3; 2: 36.6; 3: 6.5; 4: 80.2; 5: 5.7; 6: 26.7

Take each entry in turn and give its inhibition.
1. CN(C)CCCN(Cc1ccccc1)c1cccc(C(=O)N2CCc3ccc(OS(N)(=O)=O)cc3C2)c1
2. NS(=O)(=O)Oc1ccc2c(c1)CN(C(=O)c1cccc(N3CCC(Cc4ccccc4)CC3)c1)CC2
3. NS(=O)(=O)Oc1ccc2c(c1)CN(C(=O)c1ccc(N3CCN(Cc4ccccc4)CC3)cc1)CC2
4. CCCN(CCC)c1cccc(C(=O)N2CCc3ccc(OS(N)(=O)=O)cc3C2)c1
5. CN(CCCN1CCCCC1)c1ccc(C(=O)N2CCc3ccc(OS(N)(=O)=O)cc3C2)cc1
6. CC(C)CCN(CCC(C)C)c1cccc(C(=O)N2CCc3ccc(OS(N)(=O)=O)cc3C2)c1
7. CCN(Cc1ccccn1)c1ccc(C(=O)N2CCc3ccc(OS(N)(=O)=O)cc3C2)cc1

Return:
1: 23.8; 2: 1.4; 3: 20.8; 4: 8.3; 5: 17.4; 6: 32.3; 7: 42.5

Take each entry in turn and give its inhibition.
1. CN(C)CCN(Cc1ccccc1)c1ccc(C(=O)N2CCc3ccc(OS(N)(=O)=O)cc3C2)cc1
2. CCN(Cc1ccc(F)cc1)c1ccc(C(=O)N2CCc3ccc(OS(N)(=O)=O)cc3C2)cc1
3. NS(=O)(=O)Oc1ccc2c(c1)CN(C(=O)c1ccc(N3CCC(Cc4ccccc4)CC3)cc1)CC2
4. CCN(Cc1cccnc1)c1cccc(C(=O)N2CCc3ccc(OS(N)(=O)=O)cc3C2)c1
5. CN(CCCN1CCCCC1)c1cccc(C(=O)N2CCc3ccc(OS(N)(=O)=O)cc3C2)c1
6. CCN(Cc1ccccc1)c1cccc(C(=O)N2CCc3ccc(OS(N)(=O)=O)cc3C2)c1

Return:
1. 13.9
2. 69.1
3. 41.4
4. 14.3
5. 24.1
6. 17.3

Take each entry in turn and give its inhibition.
1. NS(=O)(=O)Oc1ccc2c(c1)CN(C(=O)c1cccc(N3CCOCC3)c1)CC2
2. CCCN(Cc1ccccc1)c1ccc(C(=O)N2CCc3ccc(OS(N)(=O)=O)cc3C2)cc1
3. CN(C)CCN(CCN(C)C)c1ccc(C(=O)N2CCc3ccc(OS(N)(=O)=O)cc3C2)cc1
4. NS(=O)(=O)Oc1ccc2c(c1)CN(C(=O)c1cccc(N3CCc4ccccc4C3)c1)CC2
5. CN(C)CCN(Cc1ccccc1)c1cccc(C(=O)N2CCc3ccc(OS(N)(=O)=O)cc3C2)c1
6. CCN(Cc1ccccc1)Cc1ccc(CN2CCc3ccc(OS(N)(=O)=O)cc3C2)cc1

Return:
[0, 64.8, 3.8, 24.1, 0, 1]

Take each entry in turn and give its inhibition.
1. CN(CCN1CCCCC1)c1cccc(C(=O)N2CCc3ccc(OS(N)(=O)=O)cc3C2)c1
2. NS(=O)(=O)Oc1ccc2c(c1)CN(C(=O)c1cccc(N(CCCO)Cc3ccccc3)c1)CC2
3. NS(=O)(=O)Oc1ccc2c(c1)CN(C(=O)c1cccc(N3CCCCC3)c1)CC2
4. CCN(Cc1ccccc1)Cc1ccc(S(=O)(=O)N2CCc3ccc(OS(N)(=O)=O)cc3C2)cc1
5. CC(C)CCN(CCC(C)C)c1ccc(C(=O)N2CCc3ccc(OS(N)(=O)=O)cc3C2)cc1
6. NS(=O)(=O)Oc1ccc2c(c1)CN(C(=O)c1ccc(N3CCc4ccccc4C3)cc1)CC2

Return:
1. 24.5
2. 25.8
3. 1
4. 10
5. 47
6. 56

Take each entry in turn and give its inhibition.
1. NS(=O)(=O)Oc1ccc2c(c1)CN(C(=O)c1ccc(N(CCO)Cc3ccccc3)cc1)CC2
2. CN1CCN(c2ccc(C(=O)N3CCc4ccc(OS(N)(=O)=O)cc4C3)cc2)CC1

Return:
1: 27.9; 2: 2.9
